System: Echinochloa crus-galli (ECHCG)
Assay: Pre-emergence herbicidal activity, glasshouse pot test
Format: in vivo
Settings: Echinochloa crus-galli, 312 h; Rate 250 g/ha; pre-emergence spray; evaluated after 13 days; read-out: Pre-emergence activity ECHCG (100=total damage to plant; 0=no damage to plant)
Procedure: Seeds of a variety of test species were sown in standard soil in pots. […] After 13 days for pre and post-emergence, the test was evaluated (100=total damage to plant; 0=no damage to plant). […]
Kindly state pest or weed control at 250 g/ha for each of the entries shown.
API: value field is a number in %; no unit string.

Short answer for CCc1ccc(Oc2ccc(Br)cc2Cl)cc1C1=C(O)[C@H]2CC[C@H](C2)C1=O : pest or weed control at 250 g/ha was 90

Note to self: pest or weed control at 250 g/ha recorded for CCc1ccc(Oc2cc(C(F)(F)F)cc(Cl)n2)cc1C1=C(O)C(C)(C)OC(C)(C)C1=O was 10

Entry CCc1ccc(Oc2cncc(Cl)n2)cc1C1=C(O)C(C)(C)OC(C)(C)C1=O , pest or weed control at 250 g/ha reported as 10

Entry CCc1ccc(Oc2ccc(C(F)(F)F)c(C#N)c2)cc1C1=C(O)[C@@H]2CC[C@](C)(C1=O)C2(C)C , pest or weed control at 250 g/ha reported as 100

Looking up CCc1ccc(Oc2ccc(Br)c(C)c2)cc1C1=C(O)C(C)(C)OC(C)(C)C1=O , I see its pest or weed control at 250 g/ha listed as 0

// sample CCc1ccc(Oc2ccc(OC)nn2)cc1C1=C(O)C(C)(C)OC(C)(C)C1=O , its pest or weed control at 250 g/ha was 10

# compound CCc1ccc(Oc2ccc(C#N)cc2Cl)cc1C1=C(O)C(C)(C)OC(C)(C)C1=O ; its pest or weed control at 250 g/ha = 100

Entry CCc1ccc(Oc2ccc(Cl)cc2C#N)cc1C1=C(O)C(C)(C)OC(C)(C)C1=O — recorded pest or weed control at 250 g/ha = 20

* * *

tested on: Alopecurus myosuroides (ALOMY); experiment: Post-emergence herbicidal activity, glasshouse pot test; format: in vivo; settings: Alopecurus myosuroides, 312 h, rate 250 g/ha, evaluated after 13 days, glasshouse, read-out: Post-emergence activity ALOMY (100=total damage to plant; 0=no damage to plant)
Is pest or weed control at 250 g/ha at least 90%? Then 1.0. If not, 0.0.

QUERY: For this molecule, is measured pest or weed control at 250 g/ha 90% or higher? CCc1ccc(Oc2cc(Cl)c(Cl)nn2)cc1C1=C(O)C(C)(C)OC(C)(C)C1=O
RESULT: 0.0

QUERY: For this molecule, is measured pest or weed control at 250 g/ha 90% or higher? CCc1ccc(Oc2ccc([N+](=O)[O-])cc2F)cc1C1=C(O)C(C)(C)OC(C)(C)C1=O
RESULT: 0.0

QUERY: Check the entry CCc1ccc(Oc2ncc(Br)cn2)cc1C1=C(O)CC2(CCOCC2)CC1=O : does pest or weed control at 250 g/ha equal or exceed 90%?
RESULT: 1.0

QUERY: Exam item: decide whether the reported pest or weed control at 250 g/ha for CCc1ccc(Oc2nc3ccc(Cl)cc3o2)cc1C1=C(O)C(C)(C)OC(C)(C)C1=O is at least 90%.
RESULT: 1.0

QUERY: Is the recorded value of pest or weed control at 250 g/ha equal to or greater than 90% for this molecule? CCc1ccc(Oc2ccc([N+](=O)[O-])c(Cl)c2)cc1C1=C(O)[C@H]2CC[C@H](C2)C1=O
RESULT: 0.0

QUERY: # bool: pest or weed control at 250 g/ha of CCc1ccc(Oc2ncc(Cl)cc2F)cc1C1=C(O)C(C)(C)OC(C)(C)C1=O >= 90%
RESULT: 1.0

QUERY: Does the reported pest or weed control at 250 g/ha for CCc1ccc(Oc2nc3ccccc3cc2C)cc1C1=C(O)C(C)(C)OC(C)(C)C1=O fall at or above the 90% mark?
RESULT: 0.0

QUERY: Given CCc1ccc(Oc2nc(F)c(F)c(Cl)c2F)cc1C1=C(O)C(C)(C)OC(C)(C)C1=O , state whether its pest or weed control at 250 g/ha is at least 90%.
RESULT: 0.0

QUERY: Hi, just wondering whether CCc1ccc(Oc2ccc(Cl)cn2)cc1C1=C(O)CC(C)(C)CC1=O shows pest or weed control at 250 g/ha of 90% or higher.
RESULT: 1.0

QUERY: Test whether the molecule CCc1ccc(Oc2cc(Cl)nc(C)n2)cc1C1=C(O)C(C)(C)OC(C)(C)C1=O records pest or weed control at 250 g/ha of 90% or higher.
RESULT: 0.0

QUERY: Reported pest or weed control at 250 g/ha reaches at least 90% for CCc1ccc(Oc2nc3ccc(Cl)cc3s2)cc1C1=C(O)[C@H]2CC[C@H](C2)C1=O ?
RESULT: 1.0

QUERY: Exam item: decide whether the reported pest or weed control at 250 g/ha for CCc1ccc(Oc2nc3c(Cl)cc(Cl)cc3s2)cc1C1=C(O)[C@@H]2CC[C@](C)(C1=O)C2(C)C is at least 90%.
RESULT: 0.0
